# System: SK-MEL-5 melanoma
# assay_procedure: NCI-60 one-dose screen, 48 h (100 = growth as untreated, 0 = no growth, -100 = all killed)
# condition_parameters: 10 µM unless noted
The panel holds about 83,000 compounds, 20% with a hit somewhere; the sample as a whole holds those more often.
Each record here notes measured growth.
Use % as the unit, but write only the number.

// growth (SK-MEL-5 melanoma) for O=C(NCc1ccco1)C1CN(c2ccc(Cl)cc2)N(c2ccc(Cl)cc2)C1=O (stereo unspecified) = 41.8

The measured growth that "Cc1ccc(Cc2cnc(NC(=O)CN3C(=O)/C(=C\c4ccccc4)SC3=S)s2)cc1" showed for SK-MEL-5 melanoma is 102

Readout growth for "Cc1ccc(C)c(-c2csc(Nc3ccc(C)c(C)c3)n2)c1" , test system SK-MEL-5 melanoma, was -92.3

Record "Nc1no[n+]([O-])c1-c1nnc2c(n1)-c1ccccc1C2=O" / SK-MEL-5 melanoma, growth recorded as 19.7

Record for "COc1cccc(-c2nn(C)c3sc(C(=O)NCCN4CCN(c5ccccc5F)CC4)cc23)c1" under target or system SK-MEL-5 melanoma: growth reported as -79.6

Case COc1ccc(C(=O)C2CC2c2ccc(Cl)cc2)cc1 (stereo unspecified) , SK-MEL-5 melanoma, growth recorded as 96.7
